Tested on: hair growth
Experiment Summary: Inhibition of hair growth (hair mass, treated vs untreated site)
Type: in vivo, hamster
Measurement Conditions: Dose 20%, Vehicle A, topical
Record form. Attribute: Hair Mass Treated. Fill in for each entry.
Response body: numeric value in mg, unit text excluded.

Problem: For O=S(=O)(O)CC(S)CS (stereo not drawn) , what is its reported Hair Mass Treated?
Solution: 0.64

Problem: Try CCOC(=O)[C@@H](N)CS next.
Solution: 0.49

Problem: Try NCCS [2-Mercaptoethylamine (Cysteamine), 2-Mercaptoethylamine, reference compound] next.
Solution: 0.30

Problem: Try COC(=O)[C@@H](N)CS next.
Solution: 0.28

Problem: Try O=C(O)CCSCCC(=O)O next.
Solution: 0.76

Problem: Try NCCSC[C@H](N)C(=O)O next.
Solution: 0.99

* * *

System: hair growth
Experiment Summary: Inhibition of hair growth (hair mass, treated vs untreated site)
Assay type: in vivo, hamster
Measurement Conditions: Dose 20%, Vehicle A, topical
Assay Metric: Hair Mass Percent Reduction (%)
Response body: numeric value in %, unit text excluded.

Problem: For NCCSC[C@H](N)C(=O)O , what is its reported Hair Mass Percent Reduction?
Solution: 50

Problem: Try COC(=O)[C@@H](N)CS next.
Solution: 86

Problem: Try O=C(O)CCSCCC(=O)O next.
Solution: 73

Problem: Try CCOC(=O)[C@@H](N)CS next.
Solution: 82

Problem: Try O=S(=O)(O)CC(S)CS (stereo not drawn) next.
Solution: 79

Problem: Try NCCS [2-Mercaptoethylamine (Cysteamine), 2-Mercaptoethylamine, reference compound] next.
Solution: 86

* * *

System: hair growth
Experiment Summary: Inhibition of hair growth (hair mass, treated vs untreated site)
Type: in vivo, hamster
Measurement Conditions: Dose 15%, Vehicle A, topical
Labelling: Hair Mass Percent Reduction reported below 60% becomes MET; at or above becomes NOT MET.

Problem: Please check: Hair Mass Percent Reduction for O=C(O)CCCCC1CCSS1 (racemic) [DL-α-Lipoic acid (reduced form), DL-α-Lipoic acid] , strictly under 60% or not?
Solution: MET

Problem: Try CC(C)(SSC(C)(C)[C@@H](N)C(=O)O)[C@@H](N)C(=O)O [D-Penicillamine disulfide] next.
Solution: MET

Problem: Try O=C(O)CCCSSCCCC(=O)O [3-Carboxypropyl disulfide] next.
Solution: NOT MET

Problem: Try O=S(=O)(O)CCO next.
Solution: MET

Problem: Try N[C@@H](CS)C(=O)NCC(=O)O next.
Solution: MET

Problem: Try CC(C)(S)[C@@H](N)C(=O)O [D-Penicillamine, reference compound] next.
Solution: NOT MET

Problem: Try CCN(CC)C(=S)S next.
Solution: NOT MET

Problem: Try CC(=O)N[C@@H](CS)C(=O)O [N-Acetyl-L-Cysteine, reference compound] next.
Solution: NOT MET

Origin of measurements: patent US6743419B1
